Some molecules, each annotated with its measured % max. toxicity @ 50 μM2.
system: Hep3B; experiment: IC50 determination / cytotoxicity in human cell lines (Hep3B); format: cell-based; conditions: Hep3B (liver; childhood HCC); 50 μM; 96 h
result-type: % max. toxicity @ 50 μM2 (%)

Nc1nc2c(ncn2[C@H]2C[C@@H](O)[C@@H](COP(=O)(O)O[C@@H]3C[C@H](n4cc(F)c(=O)[nH]c4=O)O[C@@H]3CO)O2)c(=S)[nH]1 [Compound 6]    82
Nc1nc2c(ncn2[C@H]2C[C@@H](OP(O)(=S)OC[C@H]3O[C@@H](n4cc(F)c(=O)[nH]c4=O)C[C@H]3O)[C@@H](CO)O2)c(=S)[nH]1 (some centres unmarked) [Compound 11]    62
Nc1nc2c(ncn2[C@H]2C[C@@H](O)[C@@H](COP(O)(=S)O[C@@H]3C[C@H](n4cc(F)c(=O)[nH]c4=O)O[C@@H]3CO)O2)c(=S)[nH]1 (some centres unmarked) [Compound-12]    59
Nc1nc2c(ncn2[C@H]2C[C@@H](O)[C@@H](COP(=O)(O)O[C@@H]3C[C@H](n4cnc5c(=S)[nH]c(N)nc54)O[C@@H]3CO)O2)c(=S)[nH]1 [Compound 1]    92
Nc1nc2c(ncn2[C@H]2C[C@@H](OP(=O)(O)OC[C@H]3O[C@@H](n4cc(F)c(=O)[nH]c4=O)C[C@H]3O)[C@@H](CO)O2)c(=S)[nH]1 [Compound 5]    87

---

system: Hep3B; assay: IC50 determination / cytotoxicity in human cell lines (Hep3B); format: cell-based; conditions: Hep3B (liver; childhood HCC); 10.000 cells per well, 96 h; read-out: IC50 [μM] relative to untreated cells
Some compounds, each annotated with its measured IC50.
result-type: IC50 (µM)

Nc1nc2c(ncn2[C@H]2C[C@@H](OP(O)(=S)OC[C@H]3O[C@@H](n4cc(F)c(=O)[nH]c4=O)C[C@H]3O)[C@@H](CO)O2)c(=S)[nH]1 (some centres unmarked)    1.12
Nc1nc2c(ncn2[C@H]2C[C@@H](O)[C@@H](COP(O)(=S)O[C@@H]3C[C@H](n4cc(F)c(=O)[nH]c4=O)O[C@@H]3CO)O2)c(=S)[nH]1 (some centres unmarked)    3.68
Nc1nc2c(ncn2[C@H]2C[C@@H](O)[C@@H](COP(=O)(O)O[C@@H]3C[C@H](n4cc(F)c(=O)[nH]c4=O)O[C@@H]3CO)O2)c(=S)[nH]1    0.06
Nc1nc2c(ncn2[C@H]2C[C@@H](OP(=O)(O)OC[C@H]3O[C@@H](n4cc(F)c(=O)[nH]c4=O)C[C@H]3O)[C@@H](CO)O2)c(=S)[nH]1    0.09
Nc1nc2c(ncn2[C@H]2C[C@@H](O)[C@@H](COP(=O)(O)O[C@@H]3C[C@H](n4cnc5c(=S)[nH]c(N)nc54)O[C@@H]3CO)O2)c(=S)[nH]1    0.68
